Attribution: PubChem BioAssay AID328

System: BDF1 mice, P388 leukemia ip, median survival T/C
Test: NCI In Vivo Anticancer Drug Screen. Data for tumor model P388 Leukemia (intraperitoneal) in B6D2F1 (BDF1) mice
Conditions: endpoint: median survival time; dose: 100.0 mg/kg/injection; schedule: Q04DX003 (ip); vehicle: saline sonified
Procedure: The antitumor activity of compounds was measured in mice bearing transplantable tumors. Survival or tumor size were measured and the results are expressed as the measurement made in the treated group (T) divided by the measurement made in the vehicle treated control group (C). The tumor model used in this assay is P388 Leukemia (intraperitoneal) in B6D2F1 (BDF1) mice
Toxic doses and inconclusive results are not listed. Rule for the calls: active = survival T/C of 150% or more; inactive = T/C below 125% in these data.
// one of active, inactive, no free text

Observe how each entry below is paired with its result.
> print(dat)
                                   compound  assignedclass
1       CCN(CC)c1ccc(/C=C2/C=Cc3ccccc32)cc1       inactive
2  OC(COC(c1ccccc1)(c1ccccc1)c1ccccc1)C(O)CC1SCCS1 (stereo unspecified)       inactive
3                   O=C1NC(=O)C2(CCCCCC2)N1       inactive
4  Cc1ccc(S(=O)(=O)OCCN(CCOS(=O)(=O)c2ccc(C)cc2)c2ccc(N=O)cc2)cc1         active
5                      Nc1cc(Cl)c2cccnc2c1O       inactive

Data request: What is the recorded call for this compound in the test? CC1(C)CC2(CC(C)(C)c3cc(O)c(O)cc32)c2cc(O)c(O)cc21
Data returned: inactive

---

System: BDF1 mice, P388 leukemia ip, median survival T/C
Experiment: NCI In Vivo Anticancer Drug Screen. Data for tumor model P388 Leukemia (intraperitoneal) in B6D2F1 (BDF1) mice
Conditions: endpoint: median survival time; dose: 100.0 mg/kg/injection; schedule: Q04DX003 (ip); vehicle: saline
Inconclusive results and toxic doses are left out. Rule for the calls: active = survival T/C of 150% or more; inactive = T/C below 125% in these data.
// one of T = active, F = inactive, no free text

Observe how each entry below is paired with its result.
> print(dat)
                                   molecule  assignedclass
1             ClCC[N+]12CC[N+](CCCl)(CC1)C2              F
2  CC1CN(c2ccc([N+](=O)[O-])cc2)C(C)CN1 (centres undefined)              F
3  CCOC(=O)N1C=Cn2c(cnc2C)C1OCC (centres undefined)              F
4  COc1cc2c(cc1OCc1ccccc1)C=CN(C(=O)c1ccccc1)C2C#N (centres undefined)              F
5      CNC(C)COc1ccccc1 (centres undefined)              F

Data request: What is the recorded call for this molecule in the test? COc1cc2c(cc1OC)CC[N+](C)=C2
Data returned: F

Data request: What is the recorded call for this molecule in the test? CC(=O)Nc1onc(C)c1[N+](=O)[O-]
Data returned: F

Data request: What is the recorded call for this molecule in the test? Cc1cccc(Br)[n+]1[O-]
Data returned: F

Data request: What is the recorded call for this molecule in the test? COc1ccc2nc(C)c(COC(C)=O)c(Cl)c2c1
Data returned: F

Data request: What is the recorded call for this molecule in the test? O=[N+]([O-])c1ccc(N2CCCCC2)c([N+](=O)[O-])c1
Data returned: F

Data request: What is the recorded call for this molecule in the test? CCOC(=O)CCSCC(C)(C)C(=O)OCC
Data returned: F

Data request: What is the recorded call for this molecule in the test? CSCC(N)CO (centres undefined)
Data returned: F

Data request: What is the recorded call for this molecule in the test? c1ccc(C2CCCCCC2)cc1
Data returned: F

Data request: What is the recorded call for this molecule in the test? CN(C)P(=O)(N(C)C)N1CC1
Data returned: T

---

System: BDF1 mice, P388 leukemia ip, median survival T/C
Test: NCI In Vivo Anticancer Drug Screen. Data for tumor model P388 Leukemia (intraperitoneal) in B6D2F1 (BDF1) mice
Settings: endpoint: median survival time; dose: 100.0 mg/kg/injection; schedule: Q04DX003 (ip); vehicle: saline with Tween-80
Inconclusive results and toxic doses are left out. The calls were made as follows: active = survival T/C of 150% or more; inactive = T/C below 125% in these data.
// one of active, inactive, no free text

Observe how each entry below is paired with its result.
> print(dat)
                                  testsmiles  assignedclass
 1        c1ccc2c(c1)OCCOCCOc1ccccc1OCCOCCO2       inactive
 2  COc1ccc2c(c1)C(C)(C)Oc1cc3oc(C(=O)O)cc(=O)c3cc1-2       inactive
 3       Cn1c2ccccc2c2c3c(ccc21)C(=O)C=CC3=O       inactive
 4            CCOC(=O)c1c(NC(C)=O)sc2c1CCCC2       inactive
 5                    CC(=O)Nc1ccc2c(c1)OCO2       inactive
 6             CCOC(=O)C(CC(OCC)OCC)C(=O)OCC       inactive
 7  Cc1ccc2c(Nc3ccc(NS(C)(=O)=O)cc3)c3ccccc3nc2c1C         active
 8                   CCOC(=O)c1cc2sccc2[nH]1       inactive
 9                     CC1=Nc2ccccc2N=C(C)C1       inactive
10            COc1cccc(CNc2cccc(Cl)c2Cl)c1OC       inactive

Data request: What is the recorded call for this compound in the test? O[C@@H]1CCCC[C@@H]1n1cnc2c(=S)nc[nH]c21
Data returned: inactive

Data request: What is the recorded call for this compound in the test? NC(=O)C1=NNc2ccccc2C(=O)N1c1ccccc1
Data returned: inactive

Data request: What is the recorded call for this compound in the test? COB1OB(OC)OB(OC)O1
Data returned: inactive

---

Measured T/C by item
Tested on: BDF1 mice, P388 leukemia ip, median survival T/C
Assay: NCI In Vivo Anticancer Drug Screen. Data for tumor model P388 Leukemia (intraperitoneal) in B6D2F1 (BDF1) mice
Settings: endpoint: median survival time; dose: 100.0 mg/kg/injection; schedule: Q04DX003 (ip); vehicle: saline; higher = longer survival
Inconclusive results and toxic doses are left out.

Some compounds with known T/C results, for comparison:
> print(dat)
                                   compound  recordedmetric    observedresult
1  Nc1nc(=O)n(C2OC(CO)C(O)C2O)c2nc(I)[nH]c12 (centres undefined)             T/C  108 % of control
2  CCOC(=O)C(=O)N(Cc1cnc2nc(N)[nH]c(=O)c2n1)c1ccc(C(=O)NC(CCC(=O)O)C(=O)O)cc1 (centres undefined)             T/C  103 % of control

Data request: May I ask what T/C has been recorded for NNc1nncc2ccccc12 ?
Data returned: 100 % of control

Data request: May I ask what T/C has been recorded for C(/C=C\c1ccccc1)=Nc1ccccc1 ?
Data returned: 100 % of control

Data request: May I ask what T/C has been recorded for COC(=O)C1(C)CSCCC1=O (centres undefined) ?
Data returned: 100 % of control

Data request: May I ask what T/C has been recorded for Cc1ccc2ccccc2n1 ?
Data returned: 87 % of control

Data request: May I ask what T/C has been recorded for O=C1C=C(C2CCCCC2)C(=O)C2CCCCC12 (centres undefined) ?
Data returned: 110 % of control

Data request: May I ask what T/C has been recorded for C(#CCN1CCOCC1)CCCN1CCOCC1 ?
Data returned: 95 % of control

Data request: May I ask what T/C has been recorded for O=C1NC(=O)C(=O)N1 ?
Data returned: 110 % of control

---

Measured T/C by item
Test system: BDF1 mice, P388 leukemia ip, median survival T/C
Experiment: NCI In Vivo Anticancer Drug Screen. Data for tumor model P388 Leukemia (intraperitoneal) in B6D2F1 (BDF1) mice
Details: endpoint: median survival time; dose: 400.0 mg/kg/injection; schedule: Q01DX009 (ip); vehicle: other; higher = longer survival
Procedure: The antitumor activity of compounds was measured in mice bearing transplantable tumors. Survival or tumor size were measured and the results are expressed as the measurement made in the treated group (T) divided by the measurement made in the vehicle treated control group (C). The tumor model used in this assay is P388 Leukemia (intraperitoneal) in B6D2F1 (BDF1) mice
Inconclusive results and toxic doses are left out.

> print(dat)
                                   compound                         measurementtarget  recordedmetric    observedresult
1  COc1ccc(C(C(N)=O)N2CCCCC2)cc1 (centres undefined)  BDF1 mice, P388 leukemia ip, median survival T/C             T/C  100 % of control
2   Cc1ccc(C(=O)CC(O)(C(F)(F)F)C(F)(F)F)cc1  BDF1 mice, P388 leukemia ip, median survival T/C             T/C  121 % of control

Data request: Form field - read-out: T/C; system: BDF1 mice, P388 leukemia ip, median survival T/C; submitted item: COc1ccc(Br)c(C=O)c1OS(=O)(=O)c1ccc(C)cc1
Data returned: 95 % of control

Data request: Form field - read-out: T/C; system: BDF1 mice, P388 leukemia ip, median survival T/C; submitted item: CCCCCCC/C=N/N=C/CCCCCCC
Data returned: 104 % of control
